# Test system: SiHa
# assay overview: Cytotoxicity against human SiHa cells after 72 hrs by MTT assay
# Assay type: functional
GI50 values for the compounds below.
I only need the number, in µM, no unit after it.

Consider the reported GI50 for these compounds:
C[C@@H]1[C@@H](n2cc(-c3ccccc3)nn2)O[C@@H]2O[C@]3(C)CC[C@H]4[C@H](C)CC[C@@H]1[C@@]24OO3    0.14
C[C@H]1[C@H](n2nncc2-c2ccccc2)O[C@@H]2O[C@]3(C)CC[C@H]4[C@H](C)CC[C@@H]1[C@@]24OO3    0.14

API: the following record is the query input.
Readout GI50 for CCCCCc1ccc(-c2cnnn2[C@@H]2O[C@@H]3O[C@]4(C)CC[C@H]5[C@H](C)CC[C@@H]([C@H]2C)[C@@]35OO4)cc1 , test system SiHa, was 0.1
